- protocolNotes: Degradation of lansoprazole as a function of pH at 37 degrees C.
- Type: physicochemical
- reportedConditions: buffer; pH 6, 37 degrees C.
observedProperty: half-life (min)
Give just the number in min; leave the unit off.

Entry Cc1c(OCC(F)(F)F)ccnc1C[S+]([O-])c1nc2ccccc2[nH]1 (stereo not shown) , half-life reported as 204

====

- protocolNotes: Degradation of lansoprazole as a function of pH at 37 degrees C.
- Format: physicochemical
- reportedConditions: buffer; pH 9, 37 degrees C.
observedProperty: half-life (h)
Give just the number in h; leave the unit off.

Entry Cc1c(OCC(F)(F)F)ccnc1C[S+]([O-])c1nc2ccccc2[nH]1 (stereo not shown) , half-life reported as 78
